Where these numbers come from: ChEMBL document CHEMBL1153263

# studyTarget: Prostaglandin E2 receptor EP3 subtype (Homo sapiens, UniProt P43115)
# Sequence (P43115 whole entry): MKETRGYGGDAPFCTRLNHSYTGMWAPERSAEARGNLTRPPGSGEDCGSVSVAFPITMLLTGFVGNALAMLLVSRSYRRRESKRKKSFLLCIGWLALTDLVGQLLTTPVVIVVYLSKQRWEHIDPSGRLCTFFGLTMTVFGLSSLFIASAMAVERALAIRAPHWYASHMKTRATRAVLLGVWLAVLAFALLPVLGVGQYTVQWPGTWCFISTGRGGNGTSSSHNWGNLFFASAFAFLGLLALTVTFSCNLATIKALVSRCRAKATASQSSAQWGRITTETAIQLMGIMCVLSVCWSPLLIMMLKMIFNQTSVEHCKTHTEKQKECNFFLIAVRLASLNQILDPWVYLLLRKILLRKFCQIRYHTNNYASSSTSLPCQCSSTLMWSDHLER
# procedureText: Displacement of [3H]PGE2 from human EP3 receptor at 20 uM in presence of 10% human serum
parameterMeasured: IC50 (nM)

[1] Cn1cc(/C=C/C(=O)NS(=O)(=O)c2cccc(F)c2)c2c(Oc3ccc4ccccc4c3)cccc21
[2] Cn1cc(/C=C/C(=O)NS(=O)(=O)c2ccc(F)c(F)c2)c2c(Oc3ccc(Cl)cc3Cl)cccc21
Pick the one with the larger IC50: 1 vs 2 // respond with label for picked entry
1

[A] Cn1cc(/C=C/C(=O)NS(=O)(=O)c2cc(F)cc(F)c2)c2c(Oc3ccc4ccccc4c3)cccc21
[B] Cn1cc(/C=C/C(=O)NS(=O)(=O)c2cc(F)c(F)cc2F)c2c(Oc3ccc(Cl)c(Cl)c3)cccc21
Hey, between A and B which has a smaller measured IC50? Field: selected label. Fill in the label of the entry you choose.
B

[a] Cn1cc(/C=C/C(=O)NS(=O)(=O)c2ccc(F)c(F)c2)c2c(Oc3ccc(Cl)cc3F)cccc21
[b] Cn1cc(/C=C/C(=O)NS(=O)(=O)c2ccccc2F)c2c(Oc3ccc4ccccc4c3)cccc21
[c] Cn1cc(/C=C/C(=O)NS(=O)(=O)c2cc(F)c(F)cc2F)c2c(Oc3ccc(Cl)cc3Cl)cccc21
[d] Cn1cc(/C=C/C(=O)NS(=O)(=O)c2ccc(Cl)cc2Cl)c2c(Oc3ccc4ccccc4c3)cccc21
[e] Cn1cc(/C=C/C(=O)NS(=O)(=O)c2cc(F)c(F)cc2F)c2c(Oc3ccc4ccccc4c3)cccc21
Form: Sort by [IC50] Order [ ascending ] Response format: the labels, sorted as the prompt asks.
c, e, a, b, d
(c: 16.7 nM, e: 28 nM, a: 124 nM, b: 646 nM, d: 1540 nM)

[A] Cn1cc(/C=C/C(=O)NS(=O)(=O)c2c(F)cccc2F)c2c(Oc3ccc4ccccc4c3)cccc21
[B] Cn1cc(/C=C/C(=O)NS(=O)(=O)c2ccc(F)c(F)c2)c2c(Oc3ccc(F)cc3Cl)cccc21
[C] Cn1cc(/C=C/C(=O)NS(=O)(=O)c2cc(F)c(F)cc2F)c2c(Oc3ccc(F)c(Cl)c3)cccc21
Ranking field: IC50; order: falling. Rank the items, then write their labels in that order.
A, B, C

* * *

# studyTarget: Prostaglandin F2-alpha receptor (Homo sapiens, UniProt P43088)
# Sequence (P43088 whole entry): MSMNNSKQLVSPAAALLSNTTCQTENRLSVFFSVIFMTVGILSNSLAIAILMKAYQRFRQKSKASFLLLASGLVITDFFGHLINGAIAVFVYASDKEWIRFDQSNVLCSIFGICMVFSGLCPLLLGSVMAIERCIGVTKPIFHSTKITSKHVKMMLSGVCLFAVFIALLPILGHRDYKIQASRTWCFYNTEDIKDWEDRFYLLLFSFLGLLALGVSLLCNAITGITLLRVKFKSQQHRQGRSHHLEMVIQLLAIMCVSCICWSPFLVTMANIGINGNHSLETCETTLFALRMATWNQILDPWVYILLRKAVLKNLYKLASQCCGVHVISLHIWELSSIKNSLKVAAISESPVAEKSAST
pIC50: −log10 of the molar value.
parameterMeasured: pIC50

[I] Cn1cc(/C=C/C(=O)NS(=O)(=O)c2ccc(F)c(F)c2)c2c(Oc3ccc4ccccc4c3)cccc21
[II] Cn1cc(/C=C/C(=O)NS(=O)(=O)c2ccc(F)c(F)c2)c2c(Oc3ccc(Cl)cc3Cl)cccc21
Lower pIC50: I or II ? Write down the label attached to your selection.
I
